Below, each entry is listed alongside its reported Tm.
B1: Haloalkane dehalogenase, D4Z2G1 (parent)
chain: MSLGAKPFGEKKFIEIKGRRMAYIDEGTGDPILFQHGNPTSSYLWRNIMPHCAGLGRLIACDLIGMGDSDKLDPSGPERYAYAEHRDYLDALWEALDLGDRVVLVVHDWGSALGFDWARRHRERVQGIAYMEAIAMPIEWADFPEQDRDLFQAFRSQAGEELVLQDNVFVEQVLPGLILRPLSEAEMAAYREPFLAAGEARRPTLSWPRQIPIAGTPADVVAIARDYAGWLSESPIPKLFINAEPGALTTGRMRDFCRTWPNQTEITVAGAHFIQEDSPDEIGAAIAAFVRRLRPA

# Variants of: B1
# runParameters: Sphingobium indicum (strain DSM 16413 / CCM 7287 / MTCC 6362 / UT26 / NBRC 101211 / UT26S); pH 7.5; Thermal; fluorescence; Na-Hepes 50 mM; reversible: no; structure 1MJ5; whole UniProt chain shown
measurementName: Tm (°C)

# mutationId, reported
rows = [
    ("A5E", 51.5),
    ("A200P", 50.5),
    ("E139K", 58.5),
    ("L248F", 61.5),
    ("E26R", 50),
    ("T249M", 60.5),
    ("A269P", 50),
    ("G229D", 51.5),
    ("A81K", 52),
    ("Q35L", 48.5),
    ("A271I", 60.5),
    ("R20C D70C", 45.5),
    ("D147H", 59.5),
    ("S75C E199C", 48.5),
    ("A95H", 50.5),
    ("R101H", 51),
    ("A218P", 51.5),
    ("G176N", 51),
    ("G229A", 51.5),
]
